# Test system: Plasmodium berghei
# Experimental details: Screen against P. berghei liver stage (PbLuc), transformed with Luciferase, at 10uM
# Assay type: functional, HepG2
# Assay context: tested at 10 uM
Among all 69,000 compounds or so, about 8,600 (12%) showed an effect of 50% or more. The full list was thinned out, with strong results kept by preference.
Binary call on INHIBITION: T from 20% upward, F beneath that.

Examples from the recorded data:
1) Cn1cc(C(=O)N[C@@H]2CN(Cc3ccc(F)cc3)[C@@H]3CCCO[C@@H]32)cn1 :: F
2) COCC(=O)N1CCCN(Cc2cc(O)c3ccccc3n2)CC1 :: T
3) Cc1nnc(SCc2cccc(F)c2)n1CC(N)=O :: T
4) Cc1nn(C)c2c(N3CCN(C(=O)C4CC4)CC3)ncnc12 :: T
5) CCC(=O)N1CCN(c2ncnc3c(C)nn(C)c23)CC1 :: T
6) NC(=O)c1cccc(C(=O)N2CCCC(n3ccnc3)C2)c1 (stereo unspecified) :: F
7) CN1C(=O)C2(NC(=O)c3ccccc3O2)c2ccccc21 (stereo unspecified) :: T
8) COc1ccc(-c2nnsc2C(=O)N2CCC(C(N)=O)CC2)cc1 :: T
9) COCC(=O)N1CCCN(Cc2c(C)nc3ccc(Cl)cn23)CC1 :: T
10) O=C(c1ccc(O)cc1)N1C[C@@H]2CCN(c3cccnc3)C[C@@H]2C1 :: T

Request: Evaluate COC(=O)[C@@H](NC(=O)c1snnc1-c1ccc(OC)cc1)C(C)C : INHIBITION at minimum 20%?
Response: T

Request: Identify whether the reported INHIBITION of the following compound is 20% or greater: CN(CC(=O)N1CCCCC1c1nccs1)C1CC1 (stereo unspecified)
Response: F

Request: Kindly determine if INHIBITION recorded for O=C(NCc1cccnc1-n1cncn1)c1cc(Cl)ccn1 is above or exactly 20%.
Response: T

====

# System: Plasmodium berghei
# Experimental details: Screen against P. berghei liver stage (PbLuc), transformed with Luciferase, at 10uM
# Assay type: functional, HepG2
# Assay context: tested at 10 uM
Among all 69,000 compounds or so, about 8,600 (12%) showed an effect of 50% or more. The sample as a whole holds a higher share of strong results than the screen did.
Assay endpoint: INHIBITION
Record the result as number plus unit.

Illustrative cases are given below, each with its answer.
1) Cc1noc(C2CCCN(C(=O)CCCNc3ncccn3)C2)n1 (stereo unspecified) :: 8.535%
2) O=C(CC(F)(F)F)N1C[C@H]2CCN[C@H]2C1 :: 62.3%
3) Cc1cnn(C2CN(CC(=O)NCCc3ccsc3)C2)c1 :: 22.3%

Request: Which INHIBITION is reported for this compound? O=C(CC1CC1)N1C[C@H]2CCN[C@H]2C1
Response: 24.6%

Request: Entry Cc1nn(-c2ncnc3[nH]cnc23)c2c1C(CC(C)C)CC(=O)N2 (stereo unspecified) has what INHIBITION?
Response: -4.35%

Request: Data request, read-out INHIBITION, for Cc1cnn(CCNCC(O)c2ccc(C(F)(F)F)cc2)c1 (stereo unspecified)
Response: 23.3%

====

# System: Plasmodium berghei
# Experimental details: Screen against P. berghei liver stage (PbLuc), transformed with Luciferase, at 10uM
# Format: functional, HepG2
# Assay context: tested at 10 uM
The whole screen tested about 69,000 compounds, of which about 8,600 (12%) showed an effect of 50% or more. The entries come from a sample that favours strong results as a whole.
Assay endpoint: INHIBITION (%)
Just the number in %, nothing appended.

Take a look at these entries with their results.
1) CCN(CC)C(=O)N1CCN(C2=NCC(C)S2)CC1 (stereo unspecified) :: 65.7
2) Fc1ccc(OCCNC2CCN(Cc3ccncc3)CC2)c(F)c1 :: 61.3
3) COc1ccccc1CN1CCCC2(Cc3ccccc3CNC2=O)C1 (stereo unspecified) :: 11
4) Cc1cc2n(n1)CC(CNC1CCN(c3ccccn3)CC1)CN2 (stereo unspecified) :: 31.4

Request: I would be grateful if you could share the reported INHIBITION for Cc1nccc(N[C@H]2CN(CC(C)(C)N3CCOCC3)C[C@@H]2C2CC2)n1 .
Response: -10.6

Request: Given the entry Fc1ccc(OCCNC2CCN(Cc3ccccn3)CC2)c(F)c1 , report its measured INHIBITION.
Response: 53.6

====

# System: Plasmodium berghei
# Experimental details: Screen against P. berghei liver stage (PbLuc), transformed with Luciferase, at 10uM
# Type: functional, HepG2
# Assay context: tested at 10 uM
In all, about 69,000 compounds went through this assay and about 8,600 (12%) showed an effect of 50% or more. Shown is part of a subset that was picked to be rich in strong results.
Assay endpoint: INHIBITION (%)
Give the value, in units of %, as a plain number.

1. Cc1cnn(CC2CN(Cc3nnc(C(C)C)o3)CCO2)c1 (stereo unspecified) :: 30.6
2. FC(F)(F)CCc1ccnc(N2CCN(Cc3ccncc3)CC2)n1 :: -0.178
3. Cc1cc(C)nc(CCNc2nccc(CCC(F)(F)F)n2)n1 :: 38.2
4. CC(C)N(C)Cc1nnc2n1CCN(S(=O)(=O)C1CC1)CC2 :: 29

Request: Record request: INHIBITION value, item CNC(=O)C1CCN(c2nccc(CCC(F)(F)F)n2)C1 (stereo unspecified)
Response: 50.1

Request: Param item = Oc1cccc(CN2CCN(c3nccc(CCC(F)(F)F)n3)CC2)c1 ; retrieve measured INHIBITION.
Response: 74.7

====

# System: Plasmodium berghei
# Experimental details: Screen against P. berghei liver stage (PbLuc), transformed with Luciferase, at 10uM
# Assay type: functional, HepG2
# Assay context: tested at 10 uM
The whole screen tested about 69,000 compounds, of which about 8,600 (12%) showed an effect of 50% or more. The sample as a whole holds a higher share of strong results than the screen did.
Each item that follows carries a reported INHIBITION.
In your response, put the unit directly after the numeric value.

1. O=C(NC1CC1)[C@@H]1CCO[C@@H]2CCN(CC3CCC3)C[C@@H]21 :: 91%

Request: # query: INHIBITION of entry O=C(NCc1ccco1)[C@@H]1CCO[C@@H]2CCN(CC3CC3)C[C@@H]21
Response: 67.2%

Request: Tell me the measured INHIBITION of O=C(NC1CC1)[C@@H]1CCO[C@@H]2CCN(Cc3ccsc3)C[C@H]21 , please.
Response: 27.3%

Request: Recorded INHIBITION of Cn1cc(CN2CC[C@H]3OCC[C@@H](C(=O)NCc4ccco4)[C@@H]3C2)cn1 , please.
Response: 5.96%

Request: Return reported INHIBITION; argument: O=C(NCc1ccccn1)[C@@H]1CCO[C@@H]2CCN(Cc3ccoc3)C[C@H]21
Response: 54.6%

====

# Test system: Plasmodium berghei
# Experimental details: Screen against P. berghei liver stage (PbLuc), transformed with Luciferase, at 10uM
# Format: functional, HepG2
# Assay context: tested at 10 uM
In all, about 69,000 compounds went through this assay and about 8,600 (12%) showed an effect of 50% or more. Shown is part of a subset that was picked to be rich in strong results.
Recorded measurements of INHIBITION, one per entry
Give just the numeric value; % need not be written.

Request: Under Plasmodium berghei: INHIBITION value of CC(=O)N1CCCC1c1cccc(Cc2ccccc2Cl)n1 (stereo unspecified) ?
Response: 38.2

Request: What is its INHIBITION for Plasmodium berghei? Entry: Cc1cc(=O)c(C(=O)N2CCC(C(O)Cc3ccccc3)CC2)c(C)[nH]1 (stereo unspecified)
Response: 35.8

====

# System: Plasmodium berghei
# Experimental details: Screen against P. berghei liver stage (PbLuc), transformed with Luciferase, at 10uM
# Assay type: functional, HepG2
# Assay context: tested at 10 uM
Out of some 69,000 compounds screened, about 8,600 (12%) showed an effect of 50% or more. Only a selection was taken, and strong results are over-represented in it overall.
Assay endpoint: INHIBITION (%)
Your answer is read as %, so omit the unit and give the number.

1) CS(=O)(=O)CCN1C[C@H](NC(=O)c2cnc(O)cn2)[C@@H](C2CC2)C1 :: -3.43
2) COc1ccccc1C(=O)NS(=O)(=O)c1cncc(Br)c1 :: 28.3

Now consider a different compound.
Request: Provide value of INHIBITION for this record tested with Plasmodium berghei: Cc1cc(C2CCCN2C(=O)NCc2cccnc2)on1 (stereo unspecified)
Response: 55

====

# Tested on: Plasmodium berghei
# Experimental details: Screen against P. berghei liver stage (PbLuc), transformed with Luciferase, at 10uM
# Assay type: functional, HepG2
# Assay context: tested at 10 uM
Among all 69,000 compounds or so, about 8,600 (12%) showed an effect of 50% or more. The sample holds strong results, similar compounds and a random draw of the others, so the mix is not that of the screen.
Assay endpoint: INHIBITION (%)
Enter your answer as a number in %; do not include the unit.

1. CCn1ncc2c1C(COC)CN(Cc1cnn(C)c1)C2 (stereo unspecified) :: 68.8
2. CCC[C@H]1CN(CCS(C)(=O)=O)C[C@@H]1NC(=O)c1cc[nH]n1 :: 13
3. CCn1ncc2c1C(COC)CN(Cc1ccc(F)cc1)C2 (stereo unspecified) :: -2.35
4. CCn1ncc2c1C(COC)CN(Cc1ccsc1)C2 (stereo unspecified) :: 62.6
5. O=C(Cc1cccnc1)NCCS(=O)(=O)c1ccccc1F :: 33.7

Request: Bench note: what INHIBITION did CCC[C@H]1CN(CCS(C)(=O)=O)C[C@@H]1NC(=O)c1ccn(C)n1 show?
Response: 61.2
